Test: qHTS assay to identify small molecule antagonists of the farnesoid-X-receptor (FXR) signaling pathway - cell viability counter screen (AID 743221); also: nearly all actives have a fitted effect of over 50% in size
Conditions: FXR-bla HEK293T viability, CellTiter-Glo luminescence, 16 h; series mostly up to 62.6 µM
From the text: National Center for Advancing Translational Sciences [NCATS] NIH Chemical Genomics Center [NCGC] U.S. Environmental Protection Agency [EPA] National Institutes of Environmental Health Sciences [NIEHS] National Toxicology Program [NTP] U.S. Food and Drug Administration [FDA] The farnesoid-X-receptor (FXR), a nuclear hormone receptor, is highly expressed in liver, intestine, kidney and adrenal cortex. Natural ligands of FXR are the bile acids (Cholic acid, Chenodeoxy cholic acid etc). […]
Results filed as inconclusive are left out. The source made the active and inactive calls. Calls follow the shape of the dose curve; as a rule, active = well fitted cell-killing curve with a large enough effect in the repeat runs (not every such curve was filed as active); inconclusive = weak or mixed curves, or effect the other way; inactive = no such curve, though single readings can be large or run the other way.
Write down one outcome, taken from y for active, n for inactive

compound_structure_string	label_value
Cc1cc2c(cc1C(F)(F)F)N(C(=O)Nc1ccc(Oc3cccnc3C)nc1)CC2	n

Task: Dear colleague, could you share the recorded outcome for O=c1c(-c2ccccc2)c1-c1ccccc1 when you have a moment?
Result: y

Task: Dear colleague, could you share the recorded outcome for CN(C)CCCOC1(Cc2ccccc2)CCCCCC1 when you have a moment?
Result: n

Task: Dear colleague, could you share the recorded outcome for CN1CCC(Nc2ncc3ncnc(Nc4ccc(F)c(Cl)c4)c3n2)CC1 when you have a moment?
Result: y

Task: Dear colleague, could you share the recorded outcome for C/C=C1/C(=O)C[C@H]2[C@@H]3CCC4=CC(=O)CC[C@]4(C)[C@H]3CC[C@]12C when you have a moment?
Result: n

Task: Dear colleague, could you share the recorded outcome for CC(=O)N1CCN(c2ccc(OC[C@H]3CO[C@](Cn4ccnc4)(c4ccc(Cl)cc4Cl)O3)cc2)CC1 when you have a moment?
Result: y

Task: Dear colleague, could you share the recorded outcome for NNc1nc(-c2ccc(N)cc2)cs1 when you have a moment?
Result: n

Task: Dear colleague, could you share the recorded outcome for O=C(OC[C@H]1O[C@@H](OC(=O)c2cc(O)c(O)c(OC(=O)c3cc(O)c(O)c(O)c3)c2)[C@H](OC(=O)c2cc(O)c(O)c(OC(=O)c3cc(O)c(O)c(O)c3)c2)[C@@H](OC(=O)c2cc(O)c(O)c(OC(=O)c3cc(O)c(O)c(O)c3)c2)[C@@H]1OC(=O)c1cc(O)c(O)c(OC(=O)c2cc(O)c(O)c(O)c2)c1)c1cc(O)c(O)c(OC(=O)c2cc(O)c(O)c(O)c2)c1 when you have a moment?
Result: n

---

Test: qHTS assay to identify small molecule agonists of the sonic hedgehog signaling (Shh) pathway - cell viability counter screen (AID 1259366); also: nearly all actives have a fitted effect of over 50% in size
Conditions: NIH/3T3 Gli1-Luc viability, CellTiter-Fluor, 24 h; series mostly up to 92.4 µM
From the text: National Center for Advancing Translational Sciences [NCATS] NIH Chemical Genomics Center [NCGC] U.S. Environmental Protection Agency [EPA] National Institutes of Environmental Health Sciences [NIEHS] National Toxicology Program [NTP] U.S. Food and Drug Administration [FDA] The sonic hedgehog (Shh) pathway is essential for normal embryonic development. Dysregulation of the Shh pathway can cause severe developmental defects in organs. […]
Results filed as inconclusive are left out. Activity calls are given as the source filed them. The call rests on the fitted dose curve; in most records, active means well fitted cell-killing curve with a large enough effect in the repeat runs; inconclusive means weak or mixed curves, or effect the other way; inactive means flat fitted curve, though single readings scatter.
Write down one outcome, taken from 1 for active, 0 for inactive

>>> df
                                   compound  label_value
0  O=C(OCC1CO1)C1CCCCC1C(=O)OCC1CO1 (stereo unspecified)            1
1  CCCCCCCCCCCCCCCC(=O)OC[C@H](O)[C@H]1OC(=O)C(O)=C1O            0
2  CSc1ccc2c(c1)C(N1CCN(C)CC1)Cc1ccccc1S2 (stereo unspecified)            1
3  Cc1cc(CCN2CCN(c3nsc4ccccc34)CC2)cc2c1NC(=O)CC2(C)C            1
4                        [Cl][Au]([Cl])[Cl]            1

Task: Dear colleague, could you share the recorded outcome for O=C(c1ccc(O)cc1O)c1ccc(O)cc1O when you have a moment?
Result: 0

---

Target: Nuclear receptor subfamily 1 group I member 3 (Homo sapiens) (UniProt Q14994)
Sequence (Q14994 whole entry, looked up): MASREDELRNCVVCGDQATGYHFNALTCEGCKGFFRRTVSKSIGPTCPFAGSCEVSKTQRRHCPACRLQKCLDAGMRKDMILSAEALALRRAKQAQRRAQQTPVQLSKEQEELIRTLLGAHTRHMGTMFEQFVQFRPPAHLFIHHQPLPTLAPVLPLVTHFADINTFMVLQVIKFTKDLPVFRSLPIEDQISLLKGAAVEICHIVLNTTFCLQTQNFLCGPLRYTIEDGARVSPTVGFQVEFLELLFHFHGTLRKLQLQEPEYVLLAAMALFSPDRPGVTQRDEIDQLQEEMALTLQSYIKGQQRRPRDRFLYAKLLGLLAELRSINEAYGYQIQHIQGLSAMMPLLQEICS
Test: qHTS assay to identify small molecule antagonists of the constitutive androstane receptor (CAR) signaling pathway (AID 1224838);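 also: HepG2 cells stably expressing hCAR with CYP2B6 luciferase reporter stimulated by CITCO; nearly all actives have a fitted effect of over 40% in size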
Details: HepG2-CYP2B6-hCAR luciferase, CITCO-stimulated, 24 h; series mostly up to 92.4 µM
Results filed as inconclusive are left out. Calls of active or inactive are those of the source. The call rests on the fitted dose curve; in most records, active means well fitted inhibition curve with a large enough effect in the repeat runs; inconclusive means weak or mixed curves, or effect the other way; inactive means no such curve, though single readings can be large or run the other way.
Write down one outcome, taken from T for active, F for inactive

Sample answers from the record:
>>> print(df.to_string())
                                   compound  label_value
0                    O=c1[nH]sc2cc(Cl)ccc12            T
1  C/C=C1/C(=O)C[C@H]2[C@@H]3CCC4=CC(=O)CC[C@]4(C)[C@H]3CC[C@]12C            F
2                              CCC(N)(CO)CO            F
3           Cc1cccc2c1cc1ccc3cccc4ccc2c1c34            F
4  C/C(=C(/OCCOc1ccc(Cl)cc1)c1ccc(Cl)cc1Cl)n1ccnc1            F
5  CCCC(=O)OC[C@@H](OC(=O)CCC)[C@@H](OC(=O)CCC)[C@H](Cn1c2nc(=O)[nH]c(=O)c-2nc2cc(C)c(C)cc21)OC(=O)CCC            T
6  Cc1cccc(CN2CCN(C(c3ccccc3)c3ccc(Cl)cc3)CC2)c1 (configuration not stated)            F
7                                ON=C1CCCC1            F

Task: Dear colleague, could you share the recorded outcome for Cc1ccc(O)c2ncccc12 when you have a moment?
Result: T

---

Experiment: qHTS assay to identify small molecule antagonists of the farnesoid-X-receptor (FXR) signaling pathway - cell viability counter screen (AID 743221); also: nearly all actives have a fitted effect of over 50% in size
Conditions: FXR-bla HEK293T viability, CellTiter-Glo luminescence, 16 h; series mostly up to 62.6 µM
Inconclusive results are not listed. Calls of active or inactive are those of the source. The call rests on the fitted dose curve; in most records, active means well fitted cell-killing curve with a large enough effect in the repeat runs (not every such curve was filed as active); inconclusive means weak or mixed curves, or effect the other way; inactive means no such curve, though single readings can be large or run the other way.
Write down one outcome, taken from True for active, False for inactive

Sample answers from the record:
>>> print(df.to_string())
                  compound_structure_string  label_value
0  [Cl][Bi]([Cl])([c]1ccccc1)([c]1ccccc1)[c]1ccccc1         True
1  CCN(C(=O)c1cc(C)cc(OC[C@H](C)Nc2ccncc2)c1)C(C)C        False
2  Cc1cc(O)c(C(C)(C)C)cc1Sc1cc(C(C)(C)C)c(O)cc1C         True
3  COc1cc(-c2nc(NC(=O)c3cc4cc(C)cc(C)c4n3CC(=O)O)sc2CCC2CCCCC2)c(OC)cc1Cl         True
4  CCCCCCCC[N+](CCCCCCCC)(CCCCCCCC)CCCCCCCC         True
5  O=C(c1ccc(F)cc1)C1CCN(CCn2c(=O)[nH]c3ccccc3c2=O)CC1        False

Task: Dear colleague, could you share the recorded outcome for Cc1[nH]cnc1C[C@H]1CCc2c(C)c3ccccc3n2C1=O when you have a moment?
Result: False

Task: Dear colleague, could you share the recorded outcome for CCN(C(=O)N(CC)c1ccccc1)c1ccccc1 when you have a moment?
Result: False

Task: Dear colleague, could you share the recorded outcome for COc1cc(/C=C/C(=O)O[C@H]2CC[C@]34C[C@]35CC[C@]3(C)[C@@H]([C@H](C)CCC=C(C)C)CC[C@@]3(C)[C@@H]5CC[C@H]4C2(C)C)ccc1O when you have a moment?
Result: False

---

Assay: qHTS assay for small molecule agonists of the antioxidant response element (ARE) signaling pathway (AID 743202); as to activation: % is scaled to controls: 0 for no effect and ±100 for the full control effect
Settings: HepG2 ARE-bla reporter, beta-lactamase FRET, 16 h; series mostly up to 73.3 µM
Results filed as inconclusive are left out. Active and inactive are the calls of the source. The call rests on the fitted dose curve; in most records, active means well fitted activation curve with a large enough effect in the signal ratio in the repeat runs (not every such curve was filed as active); inconclusive means weak or mixed curves, or effect the other way; inactive means no such curve, though single readings can be large or run the other way; the % refers to the signal ratio.
Write down one outcome, taken from active, inactive

Task: Dear colleague, could you share the recorded outcome for C[C@H]1[C@H]2CC[C@H]3[C@@H]4CC=C5C[C@@H](N(C)C)CC[C@]5(C)[C@H]4CC[C@]23CN1C when you have a moment?
Result: inactive

Task: Dear colleague, could you share the recorded outcome for Nc1c2ccccc2nc2ccccc12 when you have a moment?
Result: active

Task: Dear colleague, could you share the recorded outcome for CC1=NC(C)OC1C (configuration not stated) when you have a moment?
Result: active

Task: Dear colleague, could you share the recorded outcome for COC(=O)C1=C(C)NC(C)=C(C(=O)OCC(C)C)C1c1ccccc1[N+](=O)[O-] (configuration not stated) when you have a moment?
Result: active

Task: Dear colleague, could you share the recorded outcome for CCCCCCCCS(=O)C(C)Cc1ccc2c(c1)OCO2 (configuration not stated) when you have a moment?
Result: active

Task: Dear colleague, could you share the recorded outcome for CSc1ccc(C(=O)c2[nH]c(=O)[nH]c2C)cc1 when you have a moment?
Result: inactive

Task: Dear colleague, could you share the recorded outcome for O=C(OCC1CO1)C1CCCCC1C(=O)OCC1CO1 (configuration not stated) when you have a moment?
Result: active
